Target: Metabotropic glutamate receptor 8 (Rattus norvegicus) (UniProt P70579)
Sequence (P70579 whole entry, looked up): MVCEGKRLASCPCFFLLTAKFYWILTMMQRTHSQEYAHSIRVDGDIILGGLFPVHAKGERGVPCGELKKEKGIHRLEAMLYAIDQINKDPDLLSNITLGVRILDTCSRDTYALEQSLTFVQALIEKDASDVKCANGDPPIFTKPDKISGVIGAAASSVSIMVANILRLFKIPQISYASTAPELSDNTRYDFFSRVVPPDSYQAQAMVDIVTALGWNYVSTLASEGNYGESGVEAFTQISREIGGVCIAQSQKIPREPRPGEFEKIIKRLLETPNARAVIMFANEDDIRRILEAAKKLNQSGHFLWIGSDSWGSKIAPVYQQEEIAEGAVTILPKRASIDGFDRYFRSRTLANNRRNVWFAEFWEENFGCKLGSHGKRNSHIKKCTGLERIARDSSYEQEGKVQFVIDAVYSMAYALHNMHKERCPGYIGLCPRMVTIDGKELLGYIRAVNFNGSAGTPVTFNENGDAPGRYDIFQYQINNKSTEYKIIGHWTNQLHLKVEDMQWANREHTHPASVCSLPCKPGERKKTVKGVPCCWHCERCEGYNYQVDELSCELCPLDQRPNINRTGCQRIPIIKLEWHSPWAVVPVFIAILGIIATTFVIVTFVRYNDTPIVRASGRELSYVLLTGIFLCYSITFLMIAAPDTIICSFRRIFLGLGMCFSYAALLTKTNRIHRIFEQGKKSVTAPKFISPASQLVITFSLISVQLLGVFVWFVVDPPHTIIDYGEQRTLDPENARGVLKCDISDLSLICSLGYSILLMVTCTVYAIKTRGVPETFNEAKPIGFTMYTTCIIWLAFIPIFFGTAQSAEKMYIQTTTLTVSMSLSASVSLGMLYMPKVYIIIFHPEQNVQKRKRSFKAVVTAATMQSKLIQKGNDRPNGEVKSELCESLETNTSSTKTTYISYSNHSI
Test: mGluR8 Gi/Go-coupled signaling modulation – cell-based, rat, thallium flux, HTS, primary screen (AID 488969)
Conditions: HEK293 rat mGluR8, GIRK thallium flux, FluoZin2; at 10 µM; stronger effect = higher value; submaximal glutamate (EC20) added with thallium
Over roughly 110,000 compounds, “z-score” has its median near -0.1; the highest 2% begin near 2. What follows is part of a selection rich in the highest values, with near analogues and random picks from the rest.
Mark Fulfilled for reported z-score of -0.2 or greater; mark Not fulfilled for anything smaller.

structureassmiles=COc1cc(S(=O)(=O)N(Cc2ccccc2)Cc2ccccn2)ccc1-n1cnnn1 classlabel=Fulfilled
structureassmiles=COc1cc(OC)cc(C(=O)NC(=S)Nc2ccc3c4c(cccc24)CC3)c1 classlabel=Fulfilled

Record `Cc1nc2oc3c(NCc4ccccc4)ncnc3c2c2c1COC(C)(C)C2` ; criterion: z-score no lower than -0.2. Met?
Not fulfilled

Record `COc1ccccc1C(=O)NCCn1cc(SCC(=O)Nc2cc(C)on2)c2ccccc21` ; criterion: z-score no lower than -0.2. Met?
Fulfilled

Record `Cc1ccccc1Cn1ccc(NC(=O)c2nc3ncccn3n2)n1` ; criterion: z-score no lower than -0.2. Met?
Not fulfilled

---

Recorded z-score by entry
Target: Metabotropic glutamate receptor 8 (Rattus norvegicus)
Experiment: mGluR8 Gi/Go-coupled signaling modulation – cell-based, rat, thallium flux, HTS, primary screen (AID 488969)
Conditions: HEK293 rat mGluR8, GIRK thallium flux, FluoZin2; at 10 µM; stronger effect = higher value; submaximal glutamate (EC20) added with thallium
Over roughly 110,000 compounds, “z-score” has its median near -0.1; the highest 2% begin near 2. The entries come from a sample that favours the highest values as a whole.
Keep it simple and answer with nothing but the number.

Example cases with answers are listed next.
compound=Cc1cc(-c2n[nH]c(=S)n2/N=C/c2cccc([N+](=O)[O-])c2)n[nH]1 recordedmetric=z-score reportedvalue=-0.221
compound=CC(C)=CCC/C(C)=C/C=N/NC(=O)c1ccccc1[N+](=O)[O-] recordedmetric=z-score reportedvalue=-0.0423
compound=O=C(c1cc2sccc2n1Cc1ccccc1)N1CCCc2ccccc21 recordedmetric=z-score reportedvalue=-0.795
compound=C=CCn1c(SCC(=O)c2[nH]c(C)c(C(=O)OCC)c2C)nc2scc(-c3ccc(OC)c(OC)c3)c2c1=O recordedmetric=z-score reportedvalue=-0.123
compound=COC(=O)c1ccccc1Oc1nc(Cl)cc(OC)n1 recordedmetric=z-score reportedvalue=-0.22
compound="CN1C(=O)c2ccccc2N(C)C1c1cccs1 (configuration not stated)" recordedmetric=z-score reportedvalue=-1.51

Lab note: need z-score with Metabotropic glutamate receptor 8 (Rattus norvegicus) for entry `COc1ccc(-c2csc(-c3cc4ccccc4oc3=N)n2)cc1` , please look it up.
-0.00953

---

Recorded z-score by entry
Target: Metabotropic glutamate receptor 8 (Rattus norvegicus) (UniProt P70579)
Assay: mGluR8 Gi/Go-coupled signaling modulation – cell-based, rat, thallium flux, HTS, primary screen (AID 488969)
Details: HEK293 rat mGluR8, GIRK (G protein-gated inwardly rectifying potassium channel) thallium flux, FluoZin2; at 10 µM; stronger effect = higher value; submaximal glutamate (EC20) added with thallium
Whole data set: some 110,000 compounds, median “z-score” near -0.1, cut for the highest 2% near 2. The sample holds the highest values, similar compounds and a random draw of the others, so the mix is not that of the screen.
Keep it simple and answer with nothing but the number.

Quick one: z-score for `CCC(=O)Nc1cc2nn(-c3ccccc3)nc2cc1Cl` ?
0.0874

Quick one: z-score for `Cc1cc(C)nc(NC(=O)c2ccc(C)c([N+](=O)[O-])c2)n1` ?
-0.0674

Quick one: z-score for CSC(=NC(C)c1ccccc1)NS(=O)(=O)c1cccs1 (centres undefined) ?
0.148

Quick one: z-score for `O=C(CSc1nc(-c2ccc(F)cc2)cs1)N1CCc2ccccc21` ?
-0.119

Quick one: z-score for `O=C1C(=Cc2cccn2-c2ccc(O)cc2)C(=O)c2ccccc21` ?
-0.204

Data origin: PubChem BioAssay AID488969
